- subjectOfTest: GST-Bfl-1 (Homo sapiens)
- Construct: lacking their C-terminal transmembrane domains (about the last 20 amino acids) (“ΔTM”); made in house; host or cells: XL-1 Blue E. coli, pGEX 4T-1
- Sequence (Q16548 1-155 limits assumed): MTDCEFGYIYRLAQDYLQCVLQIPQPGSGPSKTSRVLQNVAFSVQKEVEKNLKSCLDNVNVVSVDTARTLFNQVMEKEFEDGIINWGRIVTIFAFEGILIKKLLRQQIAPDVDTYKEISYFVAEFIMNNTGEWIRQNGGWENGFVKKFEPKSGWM
- assayProcedure: Bfl-1/FITC-Bid BH3 competitive fluorescence polarization assay
- Assay type: binding
- conditions: primary HTS hits, MLSCN library (PubChem SIDs), Table 5B
Categories are defined by ranges of FRatio, namely low: < 0.8; moderate: ≥ 0.8 and < 1; high: ≥ 1

COc1ccc(Nc2cc(C)nc3nc(C)nn23)cc1Cl : high
Oc1ccc(Nc2nc(N3CCCC3)c3ccccc3n2)cc1 : low
O=C(CSc1nc(O)c2ccccc2n1)c1ccc(O)c(O)c1 : low
CCCCNC(=O)COC(=O)c1ccc(Cl)c(S(=O)(=O)N2CCCC2)c1 : moderate
O=C(CSc1nnc(-c2ccco2)c(-c2ccco2)n1)Nc1ccccc1 : high
CC(=O)c1ccc(NC(=O)c2ccc3nc(-c4ccco4)c(-c4ccco4)nc3c2)cc1 : moderate
O=C(COC(=O)c1cncc(Br)c1)NCc1ccco1 : moderate
COc1ccc(S(=O)(=O)N2CCCC2C(=O)Nc2nnc(-c3cccnc3)s2)cc1 (stereo not drawn) : moderate
Cc1cc(C)c(I)c(S(=O)(=O)N2CCC(C(=O)OCC(=O)N3c4ccccc4NC(=O)C3(C)C)CC2)c1C : moderate
Nc1nc(-c2ccco2)nn1C(=O)CCc1ccccc1 : moderate
Cn1c(=N)c(S(=O)(=O)c2ccccc2)cc2c(=O)n3ccccc3nc21 : high
COc1ccccc1N1CCN(C(=O)c2cc3c(s2)CCC3)CC1 : moderate
Cc1cc2c(cc1C)NC(c1c(C)n(C)n(-c3ccccc3)c1=O)C1=C(O)CC(C)(C)CC1=N2 (stereo not drawn) : high
Nc1ccc(N2CCN(C(=O)c3cccs3)CC2)cc1 : moderate
Cc1ccc2c(c1)c(=O)c1c3n2CCN(C(=O)CCl)C3CC1 (stereo not drawn) : moderate
Cc1ccc(OCCSc2nnc(-c3ccncc3)n2C)cc1 : moderate
Cc1cc(C)nc(Nc2ccc(N3CCCC3)cc2)n1 : low
O=C(Nc1ccccc1C(=O)O)c1ccccc1 : moderate
Cc1cc(N)ccc1N1CCCC1 : low
Cc1ccc(C)n1C(Cc1ccccc1)C(=O)O (stereo not drawn) : high
Cc1cc(OCC(=O)Nc2ccc(N3CCCC3)cc2)cc(C)c1Cl : low
Cc1nc2ccc(C(=O)O)cc2c2c1CC(C)S2 (stereo not drawn) : low
Cc1cc(C)c(NC(=O)C2=CC3C(N=C4SC=CN43)S2)c(C)c1 (stereo not drawn) : high
COc1ccc2c(c1)c(=O)oc1cc(OCC(=O)NC3CCCCC3)ccc12 : moderate
c1ccc(-c2nn3c(Cn4nnc5ccccc54)nnc3s2)nc1 : high
Cc1ccc(/N=N/c2ccc(O)c(/C=N/NC(=O)c3ccc(N)cc3)c2)cc1C : low
O=C(Nc1cccnc1)c1ccc(S(=O)(=O)N2CCCCCC2)cc1 : moderate
CCOC(=O)c1ccc2c(c1)C1C=CCC1C(C(=O)O)N2 (stereo not drawn) : low
COCCn1c(SCC(=O)Nc2ncc(Cl)c(C)c2Cl)nc2ccccc21 : moderate
O=C(OCC(=O)N1CCN(C(=O)c2ccco2)CC1)c1cc(-c2ccco2)nc2ccccc12 : moderate
c1cc2c3c(cccc3c1)NC1(CCCCCC1)N2 : low
CCSc1nnc(NC(=O)c2cnccn2)s1 : high
